test system: H. influenzae; test: Broth microdilution MIC testing; type: cell-based, Haemophilus influenzae; conditions: H. influenzae
measure: MIC H. flu (mg/L)
Report as a plain number; the unit mg/L is understood.

Recorded MIC H. flu for CCOc1ccc(CN2CCc3nc(-c4ccccn4)[nH]c(=O)c3C2)cc1Cn1ccnc1 with H. influenzae, please? 64

Recorded MIC H. flu for CC(=O)Oc1ccc(CN2CCc3nc(-c4ccccn4)[nH]c(=O)c3C2)cc1 with H. influenzae, please? 32

Recorded MIC H. flu for O=c1[nH]c(-c2ccccn2)nc2c1CN(Cc1cccc(F)c1F)CC2 with H. influenzae, please? 4

Recorded MIC H. flu for CC(C)Oc1cccc(CN2CCc3nc(-c4ccccn4)[nH]c(=O)c3C2)c1 with H. influenzae, please? 8

Recorded MIC H. flu for COc1ccc(OC)c(CN2CCc3nc(-c4ccccn4)[nH]c(=O)c3C2)c1 with H. influenzae, please? 32

Recorded MIC H. flu for O=c1[nH]c(-c2ccccn2)nc2c1CN(Cc1cc(F)ccc1F)CC2 with H. influenzae, please? 4

Recorded MIC H. flu for Cc1cc(CN2CCc3nc(-c4ccccn4)[nH]c(=O)c3C2)cc(C)c1O with H. influenzae, please? 32

Recorded MIC H. flu for O=c1[nH]c(-c2ccccn2)nc2c1CN(Cc1cccc(Cl)c1)CC2 with H. influenzae, please? 2

Recorded MIC H. flu for COc1cc(C)c(CN2CCc3nc(-c4ccccn4)[nH]c(=O)c3C2)cc1OC with H. influenzae, please? 64

Recorded MIC H. flu for O=c1[nH]c(-c2ccccn2)nc2c1CN(Cc1ccc(Cl)cc1)CC2 with H. influenzae, please? 2

Recorded MIC H. flu for O=c1[nH]c(-c2ccccn2)nc2c1CN(Cc1cccc(Cl)c1Cl)CC2 with H. influenzae, please? 4

Recorded MIC H. flu for CCOc1cc2c(cc1CN1CCc3nc(-c4ccccn4)[nH]c(=O)c3C1)OCO2 with H. influenzae, please? 16

Recorded MIC H. flu for COc1cc(CN2CCc3nc(-c4ccccn4)[nH]c(=O)c3C2)cc2c1OCO2 with H. influenzae, please? 16

----------
Assignment: determine reported MIC S. pneumo for the given compounds.
tested on: S. pneumoniae; test: Broth microdilution MIC testing; format: cell-based, Streptococcus pneumoniae; conditions: S. pneumoniae
Report as a plain number; the unit µg/mL is understood.

Query: MIC S. pneumo; subject: COc1cccc(CN2CCc3nc(-c4ccccn4)[nH]c(=O)c3C2)c1OC 32

Query: MIC S. pneumo; subject: COc1ccc(CN2CCc3nc(-c4ccccn4)[nH]c(=O)c3C2)c(C)c1C 4

----------
tested on: H. influenzae; assay: Broth microdilution MIC testing; type: cell-based, Haemophilus influenzae; details: H. influenzae
measure: MIC H. flu (µg/mL)
Report as a plain number; the unit µg/mL is understood.

Recorded MIC H. flu for COc1cccc(CN2CCc3nc(-c4ccccn4)[nH]c(=O)c3C2)c1OC with H. influenzae, please? 32

Recorded MIC H. flu for CC(C)Oc1ccc(CN2CCc3nc(-c4ccccn4)[nH]c(=O)c3C2)cc1 with H. influenzae, please? 4

----------
tested on: E. coli tolC mutants; assay: Broth microdilution MIC testing; assay type: cell-based, Escherichia coli; details: E. coli tolC mutants
Assignment: determine reported MIC E. coli tolC for the given compounds.
Report as a plain number; the unit µg/mL is understood.

Recorded MIC E. coli tolC for O=c1[nH]c(-c2ccccn2)nc2c1CN(Cc1cc(Cl)ccc1Cl)CC2 with E. coli tolC mutants, please? 1

Recorded MIC E. coli tolC for O=c1[nH]c(-c2ccccn2)nc2c1CN(Cc1cc3c(cc1Cl)OCO3)CC2 with E. coli tolC mutants, please? 64

Recorded MIC E. coli tolC for COc1ccc(OC)c(CN2CCc3nc(-c4ccccn4)[nH]c(=O)c3C2)c1 with E. coli tolC mutants, please? 128

Recorded MIC E. coli tolC for COc1cc(C)c(CN2CCc3nc(-c4ccccn4)[nH]c(=O)c3C2)cc1OC with E. coli tolC mutants, please? 64

Recorded MIC E. coli tolC for O=c1[nH]c(-c2ccccn2)nc2c1CN(Cc1ccccc1N1CCCC1)CC2 with E. coli tolC mutants, please? 32

Recorded MIC E. coli tolC for O=c1[nH]c(-c2ccccn2)nc2c1CN(Cc1cccc(Cl)c1)CC2 with E. coli tolC mutants, please? 8

Recorded MIC E. coli tolC for O=c1[nH]c(-c2ccccn2)nc2c1CN(Cc1cc(F)cc(F)c1)CC2 with E. coli tolC mutants, please? 16

Recorded MIC E. coli tolC for CN(CCO)c1ccc(CN2CCc3nc(-c4ccccn4)[nH]c(=O)c3C2)cc1 with E. coli tolC mutants, please? 128

Recorded MIC E. coli tolC for COc1cc(CN2CCc3nc(-c4ccccn4)[nH]c(=O)c3C2)cc2c1OCO2 with E. coli tolC mutants, please? 64

Recorded MIC E. coli tolC for O=c1[nH]c(-c2ccccn2)nc2c1CN(Cc1cc(F)ccc1F)CC2 with E. coli tolC mutants, please? 16

Recorded MIC E. coli tolC for O=c1[nH]c(-c2ccccn2)nc2c1CN(Cc1ccc(Br)cc1)CC2 with E. coli tolC mutants, please? 8

Recorded MIC E. coli tolC for O=c1[nH]c(-c2ccccn2)nc2c1CN(Cc1ccc(Cl)cc1Cl)CC2 with E. coli tolC mutants, please? 4

Recorded MIC E. coli tolC for COc1cccc(CN2CCc3nc(-c4ccccn4)[nH]c(=O)c3C2)c1OC with E. coli tolC mutants, please? 128

Recorded MIC E. coli tolC for COc1cc(Cl)cc(CN2CCc3nc(-c4ccccn4)[nH]c(=O)c3C2)c1OC with E. coli tolC mutants, please? 8

Recorded MIC E. coli tolC for O=c1[nH]c(-c2ccccn2)nc2c1CN(Cc1c(F)cccc1F)CC2 with E. coli tolC mutants, please? 32

Recorded MIC E. coli tolC for CCOc1cc2c(cc1CN1CCc3nc(-c4ccccn4)[nH]c(=O)c3C1)OCO2 with E. coli tolC mutants, please? 32

Recorded MIC E. coli tolC for COc1ccc(CN2CCc3nc(-c4ccccn4)[nH]c(=O)c3C2)c(C)c1C with E. coli tolC mutants, please? 8
